Reported values: IC50 for Histone deacetylase 3 (Homo sapiens, UniProt O15379), one per item.
Answer format: numeric, nM implied, no suffix.

Entry Nc1ccccc1NC(=O)/C=C/c1ccc(NC(=O)C(Cc2ccccc2)c2ccccc2)cn1 (stereo unspecified) , system Histone deacetylase 3 (Homo sapiens, UniProt O15379): what IC50 was measured?
603

IC50 of "Nc1ccccc1NC(=O)c1ccc(NC(=O)Cc2cccc3ccccc23)cn1" on Histone deacetylase 3 (Homo sapiens, UniProt O15379)?
289

Requested read-out IC50, target or system Histone deacetylase 3 (Homo sapiens, UniProt O15379), entry "Nc1ccccc1NC(=O)/C=C/c1ccc(NC(=O)Cc2ccccc2)cn1"
224

Write down the reported IC50 of "O=C(/C=C/c1ccc(NC(=O)Cc2ccc3ccccc3c2)cn1)NO" , test system: Histone deacetylase 3 (Homo sapiens, UniProt O15379).
Sequence (O15379 whole entry): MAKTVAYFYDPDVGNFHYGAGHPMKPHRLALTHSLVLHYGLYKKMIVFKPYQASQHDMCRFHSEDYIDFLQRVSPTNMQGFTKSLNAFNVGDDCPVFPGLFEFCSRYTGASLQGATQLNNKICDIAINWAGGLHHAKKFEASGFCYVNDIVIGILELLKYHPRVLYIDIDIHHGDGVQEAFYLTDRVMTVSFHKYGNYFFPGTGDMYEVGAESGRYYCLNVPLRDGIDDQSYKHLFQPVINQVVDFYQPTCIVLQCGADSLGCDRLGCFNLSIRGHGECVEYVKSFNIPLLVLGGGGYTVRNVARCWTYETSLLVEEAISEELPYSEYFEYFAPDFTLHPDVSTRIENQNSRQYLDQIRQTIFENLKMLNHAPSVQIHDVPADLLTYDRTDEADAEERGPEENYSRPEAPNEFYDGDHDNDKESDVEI
168

Given the entry Nc1ccccc1NC(=O)c1ccc(NC(=O)C(Cc2ccccc2)c2ccccc2)cn1 (stereo unspecified) , what IC50 was observed with Histone deacetylase 3 (Homo sapiens, UniProt O15379)?
515

Lab note: need IC50 for "O=C(Cc1ccc2ccccc2c1)Nc1ccc(C(=O)NO)nc1" on Histone deacetylase 3 (Homo sapiens, UniProt O15379), anyone have it?
207

What IC50 appears in the records for this molecule with Histone deacetylase 3 (Homo sapiens, UniProt O15379)? "Nc1ccccc1NC(=O)c1ccc(NC(=O)Cc2ccc3ccccc3c2)cn1"
440

Form field: IC50 recorded for CC(C)C(C(=O)Nc1ccc(/C=C/C(=O)NO)nc1)c1ccccc1 (stereo unspecified) with Histone deacetylase 3 (Homo sapiens, UniProt O15379) (enter value)
28

Notebook: pull reported IC50 for Histone deacetylase 3 (Homo sapiens, UniProt O15379), entry "O=C(/C=C/c1ccc(NC(=O)Cc2ccccc2)cn1)NO"
78

Tell me reported IC50 for "Nc1ccccc1NC(=O)/C=C/c1ccc(NC(=O)Cc2ccc3ccccc3c2)cn1" , tested with Histone deacetylase 3 (Homo sapiens, UniProt O15379).
414

Field: IC50 (Histone deacetylase 3 (Homo sapiens, UniProt O15379)). Entry: "Nc1ccccc1NC(=O)c1ccc(NC(=O)Cc2ccccc2)cn1"
248
